Source: the METLIN SMRT retention time set (Domingo-Almenara et al. 2019)

Entries and their measured RP-LC retention time follow.
Assay Info: gradient 5% acetonitrile 3 min, to 50% in 2 min, to 85% in 15 min, held 3 min, 100 µL/min
Measurement Conditions: column: Zorbax Extend-C18 2.1 x 50 mm; eluents: water / acetonitrile, 0.1% formic acid
Report as: number unit

Example results:
O=C(Cc1cccc2ccccc12)Nc1cc(-c2ccccn2)no1: 878 s
Cn1cc(CC(=O)NCc2ccc(Br)cc2)c2cccnc21: 736 s
COc1ccc(-c2noc(CN3N=NC4C(=O)N(c5ccc(F)c(F)c5)C(=O)C43)n2)cc1 (stereo not drawn): 1130 s

Look up RP-LC retention time for this compound: Cc1ccc(CSc2nccc3c2ccn3CC(=O)NCCN2CCN(C)CC2)cc1
589 s

Look up RP-LC retention time for this compound: Cc1ccsc1C(=O)N1CCC2(CC1)N=C(c1ccc(Cl)cc1)NO2
896 s

Look up RP-LC retention time for this compound: CCc1nnc2cc(N3CCN(C(=O)c4ccc(Cl)cc4)CC3)cnn12
561 s
